# credit: the Deep4Chem optical property database

Experiment: solvent given as SMILES
Conditions: in ClCCl
recordedMetric: absorption maximum (nm)
Numbers only, in nm.

CCOC(=O)c1c(-c2cc3ccc(OCC=C(C)C)cc3oc2=O)nn(-c2ccccc2)c1C(=O)OCC | 341
CC1=c2ccccc2=[N+]2C1=Cc1c3ccccc3c(-c3[nH]c4ccccc4c3C)n1[B-]2(F)F | 611
CCCCCCc1ccc2c3c(ccc2c1)O[B-](F)(F)[N+](c1cc([N+]2=Cc4c(ccc5cc(CCCCCC)ccc45)O[B-]2(F)F)cc([N+]2=Cc4c(ccc5cc(CCCCCC)ccc45)O[B-]2(F)F)c1)=C3 | 428

// moving on: another record for absorption maximum
Exam item: // lookup absorption maximum for C[n+]1ccc(/C=C/c2ccc(N(c3ccccc3)c3ccc(/C=C/c4cc[n+](C)cc4)cc3)cc2)cc1
Marked response: 402

---

Assay: solvent given as SMILES
Conditions: in c1ccccc1
Consider the following compounds; for each one, report its absorption maximum.

Respectfully, I request absorption maximum for each entry included below.
1. CC(C)[Si]1(C(C)C)c2cc(N(C)C)ccc2-c2ccc(C(F)(F)F)cc21
2. COc1ccc2c(=O)c3c([nH]c2c1)-c1cc(Cl)ccc1NC3(C)C
3. CCC1(CC)c2cc(N(C)C)ccc2-c2ccc(C(F)(F)F)cc21

Marked response:
1. 338 nm
2. 420 nm
3. 346 nm

---

Test: solvent given as SMILES
Conditions: in ClC(Cl)Cl
recordedMetric: absorption maximum (nm)
Answers are plain numbers, in nm.

Respectfully, I request absorption maximum for each entry included below.
1. CCCCCCCN1C(=CC2=C([O-])C(=Cc3sc4ccccc4[n+]3CCCCCCC)C2=C(C#N)C#N)Sc2ccccc21
2. COc1c2ccccc2c(-c2ccccc2)c2ccccc12
3. CC(=O)OCCN1C(=O)c2cccc3c(Oc4ccc(C#N)cc4)ccc(c23)C1=O
4. O=P1(c2ccccc2)C(c2cc(C(F)(F)F)cc(C(F)(F)F)c2)=Cc2c3ccc4cccc5ccc(c6cc(-c7ccccc7)n1c26)c3c45 (configuration not stated)
5. CCCCn1c2ccc(-c3ccc4ccccc4c3)cc2c2ccc3c4cc(-c5ccc6ccccc6c5)ccc4n(CCCC)c3c21

Marked response:
1: 704; 2: 378; 3: 351; 4: 452; 5: 327

---

Test: solvent given as SMILES
Conditions: in CCCO
Consider the following molecules; for each one, report its absorption maximum.
One number for each entry, in nm.

O=C(O)c1c2ccccc2nc2ccccc12 | 368
C#CCN1C(=O)/C(=C/c2cc(OC(C)C)ccc2OC(C)C)N=C1C | 400
C#CCNC1=C2C=CC=[N+]2[B-](F)(F)n2cccc21 | 408
Cc1cc(=O)c2ccc(N)cc2o1 | 329

Respectfully, I request absorption maximum for each entry included below.
1. CCN(CC)c1ccc(/C=C/C(=O)c2c(O)cc(C)oc2=O)cc1
2. CN(C)c1cccc2c1ccc1c(=O)oc(-c3ccc(C(F)(F)F)cc3)cc12

Marked response:
1. 468
2. 393

Respectfully, I request absorption maximum for each entry included below.
1. c1csc(-c2cnc(-c3cccs3)c3nonc23)c1
2. COCCOCCOCCOc1cc(C=O)c(OCCOCCOCCOC)cc1C=O

Marked response:
[466, 367]

---

Experiment: solvent given as SMILES
Conditions: in CCOC(C)=O
Decide using absorption maximum alone. Strictly below 400 nm: 1. Equal to or above 400 nm: -1.

c1ccc2c(-n3cnc4ccccc43)cccc2c1 | 1
CN(C)c1ccc(C#Cc2ccc(C=O)cc2)cc1 | 1
CCC1=C(C)C2=C(C)c3cccn3[B-](F)(F)[N+]2=C1C | -1
N#C/C(=C\c1cn(-c2ccccc2)nc1-c1ccccc1)c1nc2ccccc2s1 | 1
CCC1=C(C)C2=Cc3cc(I)cn3[B-](F)(F)[N+]2=C1C | -1
Cc1ccc(/C=N/c2cc(C(C)C)c(O)cc2C)cc1 | 1
CC1=N/C(=C\c2ccncc2)C(=O)N1C | 1
CCCCCCCCC1(CCCCCCCC)c2ccccc2-c2ccc(N(c3ccc(-n4c5ccccc5c5ccccc54)cc3)c3ccc4c(c3)C(CCCCCCCC)(CCCCCCCC)c3ccccc3-4)cc21 | 1

Continue with the next compound.
Exam item: Hello, is absorption maximum of the following compound strictly smaller than 400 nm? CCn1ncc2c3c(C#N)c4c5ccccc5n(CC)c4nc3ccc21
Marked response: 1
